Species on record: Homo sapiens
assayExplanation: Selectivity ratio of Kd for galectin-1 (unknown origin) to Kd for galectin-3 (unknown origin)
endpointLabel: Selectivity ratio
Simply state the number, no unit and no words.

[N-]=[N+]=NCCCO[C@@H]1O[C@H](CO)[C@@H](O[C@@H]2O[C@H](CO)[C@H](O)[C@H](OCc3ccc(Oc4ccccc4)cc3)[C@H]2O)[C@H](O)[C@H]1NC(=O)c1ccccc1 22

// recorded Selectivity ratio for `CO[C@@H]1O[C@H](CO)[C@@H](O[C@@H]2O[C@H](CO)[C@H](O)[C@H](O)[C@H]2O)[C@H](O)[C@H]1NC(C)=O` : 1

Selectivity ratio in this record for `OC[C@H]1O[C@@H](S[C@@H]2O[C@H](CO)[C@H](O)[C@H](n3cc(-c4ccc(Oc5ccccc5)cc4)nn3)[C@H]2O)[C@H](O)[C@@H](n2cc(-c3ccc(Oc4ccccc4)cc3)nn2)[C@H]1O` : 230

----------
Below are compounds with their Kd as measured on Galectin-1 (Homo sapiens, UniProt P09382).
Sequence (P09382 whole entry): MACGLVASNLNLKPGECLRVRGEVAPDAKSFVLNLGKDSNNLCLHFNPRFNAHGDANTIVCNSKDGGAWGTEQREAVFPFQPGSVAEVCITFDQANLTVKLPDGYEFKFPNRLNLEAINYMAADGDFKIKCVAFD
Answer format: numeric, µM implied, no suffix.

OC[C@H]1O[C@@H](S[C@@H]2O[C@H](CO)[C@H](O)[C@H](n3cc(-c4cccc(O)c4)nn3)[C@H]2O)[C@H](O)[C@@H](n2cc(-c3cccc(O)c3)nn2)[C@H]1O 0.013

Let me check: `OC[C@H]1O[C@@H](S[C@@H]2O[C@H](CO)[C@H](O)[C@H](n3cc(-c4ccccc4)nn3)[C@H]2O)[C@H](O)[C@@H](n2cc(-c3ccccc3)nn2)[C@H]1O` , system Galectin-1 (Homo sapiens, UniProt P09382), measured Kd is 0.049

Param item: `[N-]=[N+]=NCCCO[C@@H]1O[C@H](CO)[C@@H](O[C@@H]2O[C@H](CO)[C@H](O)[C@H](OCc3ccc(Oc4ccccc4)cc3)[C@H]2O)[C@H](O)[C@H]1N1C(=O)c2ccccc2C1=O` ; param system: Galectin-1 (Homo sapiens, UniProt P09382); output Kd: 280

I looked up `[N-]=[N+]=NCCCO[C@@H]1O[C@H](CO)[C@@H](O[C@@H]2O[C@H](CO)[C@H](O)[C@H](n3cc(-c4ccc(Oc5ccccc5)cc4)nn3)[C@H]2O)[C@H](O)[C@H]1NC(=O)c1ccccc1` and its Kd for Galectin-1 (Homo sapiens, UniProt P09382) was 6.7

----------
We begin with a simple list: items and their reported Ratio.
testSystem: Galectin-3 (Homo sapiens)
Sequence (P17931 whole entry): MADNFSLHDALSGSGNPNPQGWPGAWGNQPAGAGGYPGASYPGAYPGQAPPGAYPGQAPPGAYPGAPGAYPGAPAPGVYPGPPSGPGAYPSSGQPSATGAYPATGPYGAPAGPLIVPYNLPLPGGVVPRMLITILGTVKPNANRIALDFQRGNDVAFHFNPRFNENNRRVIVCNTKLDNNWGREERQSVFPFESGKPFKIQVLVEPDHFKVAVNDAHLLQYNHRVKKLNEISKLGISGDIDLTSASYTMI
assayExplanation: Ratio of LacNAc-beta-OMe Kd to compound Kd for galectin-3 (unknown origin)

Reference set, count: 3
[N-]=[N+]=NCCCO[C@@H]1O[C@H](CO)[C@@H](O[C@@H]2O[C@H](CO)[C@H](O)[C@H](n3cc(-c4ccc(Oc5ccccc5)cc4)nn3)[C@H]2O)[C@H](O)[C@H]1NC(=O)c1ccccc1 25
[N-]=[N+]=NCCCO[C@@H]1O[C@H](CO)[C@@H](O[C@@H]2O[C@H](CO)[C@H](O)[C@H](OCc3ccc(Oc4ccccc4)cc3)[C@H]2O)[C@H](O)[C@H]1NC(=O)c1ccccc1 8.5
[N-]=[N+]=NCCCO[C@@H]1O[C@H](CO)[C@@H](O[C@@H]2O[C@H](CO)[C@H](O)[C@H](OCc3ccc(Oc4ccccc4)cc3)[C@H]2O)[C@H](O)[C@H]1N1C(=O)c2ccccc2C1=O 58

Lab note: measured Ratio of `[N-]=[N+]=NCCCO[C@@H]1O[C@H](CO)[C@@H](O[C@@H]2O[C@H](CO)[C@H](O)[C@H](n3cc(-c4ccc(Oc5ccccc5)cc4)nn3)[C@H]2O)[C@H](O)[C@H]1N1C(=O)c2ccccc2C1=O` was 31
